Readings of inhibition for the listed compounds
Measurement target: AP-2 complex subunit beta (Homo sapiens) (UniProt P63010)
Sequence (P63010 whole entry, looked up, one chain of several): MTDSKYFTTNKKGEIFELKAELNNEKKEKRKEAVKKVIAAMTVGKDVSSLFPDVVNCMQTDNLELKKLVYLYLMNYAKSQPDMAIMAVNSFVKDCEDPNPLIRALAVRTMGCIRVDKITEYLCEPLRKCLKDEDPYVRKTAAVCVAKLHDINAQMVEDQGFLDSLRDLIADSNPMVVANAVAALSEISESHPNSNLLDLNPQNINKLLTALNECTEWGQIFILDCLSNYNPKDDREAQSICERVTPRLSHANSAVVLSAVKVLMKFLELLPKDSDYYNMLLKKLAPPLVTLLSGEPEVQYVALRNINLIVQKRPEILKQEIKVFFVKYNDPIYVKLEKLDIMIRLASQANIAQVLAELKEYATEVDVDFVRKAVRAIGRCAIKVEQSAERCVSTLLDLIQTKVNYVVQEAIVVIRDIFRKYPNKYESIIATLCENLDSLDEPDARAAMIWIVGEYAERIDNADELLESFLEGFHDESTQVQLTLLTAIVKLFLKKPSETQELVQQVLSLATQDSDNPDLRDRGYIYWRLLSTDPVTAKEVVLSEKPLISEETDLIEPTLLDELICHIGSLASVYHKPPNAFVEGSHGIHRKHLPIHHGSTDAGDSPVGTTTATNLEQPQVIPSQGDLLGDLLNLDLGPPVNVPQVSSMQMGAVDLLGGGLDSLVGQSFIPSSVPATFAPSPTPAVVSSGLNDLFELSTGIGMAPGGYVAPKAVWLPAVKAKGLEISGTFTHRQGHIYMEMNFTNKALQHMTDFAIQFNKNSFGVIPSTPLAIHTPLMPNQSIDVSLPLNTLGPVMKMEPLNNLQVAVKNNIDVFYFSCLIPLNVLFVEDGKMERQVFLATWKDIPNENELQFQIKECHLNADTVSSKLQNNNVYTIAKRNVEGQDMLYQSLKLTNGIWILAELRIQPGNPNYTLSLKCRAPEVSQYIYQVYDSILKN
Assay procedure: inhibitors of arrestin peptide binding to AP2, pilot screen, biochemical, validation set, GST-AP2 beads, flow cytometry (AID 504541);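 also: AP2 carries R879A mutation and is captured from E. coli lysate; bead-bound FITC arrestin peptide fluorescence measuring arrestin peptide binding to AP2; 0% = DMSO wells and 100% = excess unlabeled arrestin peptide control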
Condition details: FITC arrestin peptide, at 10 µM, stronger effect = higher value, AP2 beta2 appendage fragment, R879A mutant
Write the value in % as a bare number.

Which inhibition value belongs to N/C(=N/OS(=O)(=O)c1ccc([N+](=O)[O-])cc1)c1ccncc1 ?
-1.57

// same read-out, input: Cc1ncc([N+](=O)[O-])n1CC(O)CCl (stereo not drawn)
24.7

###

System: anti-desmoglein-3 scFv antibody binding to human DSG3
Assay procedure: inhibitors of anti-DSG3 scFv binding to DSG3, pilot screen, biochemical, validation compound set, bead-based, flow cytometry (AID 588368);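 also: signal is the median channel fluorescence of bead-bound GFP antibody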
Condition details: Protein G beads, DSG3-Fc, scFv-GFP binding, at 10 µM, stronger effect = lower value
Readings of binding (% of control) for the listed compounds
Write the value in % as a bare number.

Example compounds with recorded binding (% of control):
1. C=C(CC)C(=O)c1ccc(OCC(=O)O)c(Cl)c1Cl :: 108
2. O=C(NCCc1cccc(F)c1)[C@@H]1CSC2c3ccccc3C(=O)N21 (stereo partly specified) :: 101
3. Clc1ccccc1CN1CCc2sccc2C1 :: 102
4. CCc1ccc(/C=C2\SC(=S)N(CCC(=O)N3CCN(C)CC3)C2=O)cc1 :: 101
5. CCn1cc(C(=O)O)c(=O)c2cc(F)c(N3CCNCC3)cc21 :: 98

Which binding (% of control) value belongs to Cc1oc2c(CN3CCCC3)c(O)ccc2c(=O)c1-c1ccc(Cl)cc1 ?
96.9
